Target: Integrin alpha-4/beta-1 (Homo sapiens) (UniProt P05556+P13612)
Assay: In vitro inhibition of Jurkat cell (alpha4-beta1) cell adhesion to vascular cell adhesion molecule-1.
Type: functional, cell-based
measurement-name: Adhesion
# include the unit after the value

Could you share which Adhesion value was measured for COC1C(COC(C)C)O[C@@H](OCC(=O)O)C(OCc2ccccc2)[C@H]1OC (some centres undefined) ?
86%

Please give the result for COC1C(COC(C)C)O[C@@H](OCC(=O)O)[C@H](OCCO)[C@H]1OC (some centres undefined) too.
98%

Please give the result for COC1C(CCC(C)C)O[C@@H](OCC(=O)O)C(OCc2ccccc2)[C@H]1OC (some centres undefined) too.
100%

Please give the result for CO[C@@]12O[C@@H]3[C@H](OCCO)[C@H](OCC(=O)O)O[C@H](COCC(C)C)[C@H]3O[C@@]1(OC)c1ccccc1-c1ccccc12 too.
82%

---

Recorded pIC50 by entry
Molecular target: Integrin beta-7 (Homo sapiens, UniProt P13612+P26010)
Sequence (P26010 whole entry, one chain of several): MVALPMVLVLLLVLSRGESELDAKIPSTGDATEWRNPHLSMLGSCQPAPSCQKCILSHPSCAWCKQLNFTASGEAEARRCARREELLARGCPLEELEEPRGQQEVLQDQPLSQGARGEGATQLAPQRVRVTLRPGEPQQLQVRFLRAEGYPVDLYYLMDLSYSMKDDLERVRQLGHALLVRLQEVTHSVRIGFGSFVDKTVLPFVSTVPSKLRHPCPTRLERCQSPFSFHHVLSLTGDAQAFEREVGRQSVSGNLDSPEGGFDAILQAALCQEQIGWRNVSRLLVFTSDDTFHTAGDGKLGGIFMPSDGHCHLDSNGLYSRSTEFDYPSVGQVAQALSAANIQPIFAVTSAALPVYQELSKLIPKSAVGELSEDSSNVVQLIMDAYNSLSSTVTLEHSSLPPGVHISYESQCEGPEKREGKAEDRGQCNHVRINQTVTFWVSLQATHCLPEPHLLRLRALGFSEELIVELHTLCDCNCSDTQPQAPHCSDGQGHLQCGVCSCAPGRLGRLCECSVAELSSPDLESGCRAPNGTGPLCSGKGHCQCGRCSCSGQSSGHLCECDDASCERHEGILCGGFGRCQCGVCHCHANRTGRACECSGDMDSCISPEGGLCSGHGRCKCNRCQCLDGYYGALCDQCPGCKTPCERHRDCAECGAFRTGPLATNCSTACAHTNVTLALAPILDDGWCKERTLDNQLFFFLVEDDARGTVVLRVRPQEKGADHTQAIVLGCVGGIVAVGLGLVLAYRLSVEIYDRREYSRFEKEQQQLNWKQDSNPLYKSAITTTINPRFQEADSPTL
Experiment: Inhibition of alpha4-beta7 interaction to mucosal addressin cell adhesion molecule-1 (MAdCAM-1) was determined
Assay type: functional
FYI, pIC50 means -log10 of a concentration in mol per litre.

molecule="CO[C@]12CCCC[C@@]1(OC)OC1[C@H](COCC(C)C)O[C@@H](OCC(=O)O)[C@H](OCc3ccccc3)[C@H]1O2 (stereo in doubt; form 2)" reported_value=3.38

Proceeding to the next molecule to report its pIC50.
Could you share which pIC50 value was measured for CC(C)C[C@H](NC(=O)c1cc2ccccc2cn1)C(=O)N[C@@H](CC(=O)O)C(=O)N[C@H](C(N)=O)[C@@H](C)O ?
3.55

---

Test: In vitro inhibition of 38-beta7 (alpha4-beta7) cell adhesion to mucosal addressin cell adhesion molecule-1.
Format: functional
measurement-name: Adhesion (%)
Respond numerically; units are % and should not be typed.

molecule="COC1C(CC(C)C)O[C@@H](OCC(=O)O)C(OCc2ccccc2)[C@H]1OC (some centres undefined)" reported_value=100
molecule="COC1C(COCC(C)C)O[C@@H](OCC(=O)O)[C@H](OCCO)[C@H]1OC (some centres undefined)" reported_value=100
molecule="COC1C(CCC(C)C)O[C@@H](OCC(=O)O)C(OCc2ccccc2)[C@H]1OC (some centres undefined)" reported_value=100

Could you share which Adhesion value was measured for CO[C@@]12O[C@H]3[C@H](O[C@@]1(OC)c1ccccc1-c1ccccc12)[C@@H](COCC(C)C)OC(OCC(=O)O)[C@H]3OCCO (some centres undefined) ?
76

---

Biological target: Integrin alpha-4/beta-1 (Homo sapiens) (UniProt P05556+P13612)
Assay: In vitro inhibition of Jurkat cell (alpha4-beta1) cell adhesion to vascular cell adhesion molecule-1.
Format: functional, cell-based
measurement-name: Adhesion

Below, 2 compounds whose answers are already recorded.
compound="COC1C(COCC(C)C)O[C@@H](OCC(=O)O)C(OCc2ccccc2)[C@H]1OC (some centres undefined)" reported_value=86%
compound="CO[C@]12CCCC[C@@]1(OC)OC1[C@H](COCC(C)C)O[C@@H](OCC(=O)O)[C@H](OCc3ccccc3)[C@H]1O2 (stereo in doubt; form 1)" reported_value=89%

Could you share which Adhesion value was measured for CO[C@@]12O[C@H]3[C@H](O[C@@]1(OC)c1ccccc1-c1ccccc12)[C@@H](COCC(C)C)OC(OCC(=O)O)[C@H]3OCCO (some centres undefined) ?
81%

Please give the result for CC(C)C[C@H](NC(=O)c1cc2ccccc2cn1)C(=O)N[C@@H](CC(=O)O)C(=O)N[C@H](C(N)=O)[C@@H](C)O too.
10%
